List of IC50 values.
# System Tested: human recombinant HPK1 (Homo sapiens)
# Assay Details: Inhibitory activity against human recombinant HPK1 (TR-FRET)
# Stated Conditions: ULight-p70S6K peptide, ATP at Km, room temperature, 1 hour, 0.32 to 1000 nM compound
Counter-ions that a name gives are not always drawn.
Assay Metric: IC50

{"Compound": "COc1cccc(F)c1-c1nccc(Nc2cc(N3CCC[C@H](N)C3)c(-c3cnn([C@@H]4CCNC4)c3)cn2)n1 [Example 238, hydrochloride]", "Observed Result": "≤ 10 nM"}
{"Compound": "COc1cccc(F)c1-c1nccc(Nc2cc(N3CCC[C@H](O)C3)c(C#Cc3cnn(C(F)(F)F)c3)cn2)n1 [Example 8]", "Observed Result": "10 to 50 nM"}
{"Compound": "COc1cccc(F)c1-c1nc(Nc2cc(N3CC[C@@H](F)[C@H](N)C3)c(-c3cnn(C(F)F)c3)cn2)ccc1[N+](=O)[O-] [Example 334, hydrochloride]", "Observed Result": "≤ 10 nM"}

###

Each record here notes measured pIC50.
# System Tested: human recombinant HPK1 (Homo sapiens)
# Assay Details: Inhibitory activity against human recombinant HPK1 (TR-FRET)
# Stated Conditions: ULight-p70S6K peptide, ATP at Km, room temperature, 1 hour, 0.32 to 1000 nM compound
pIC50: −log10 of the molar value. Structures can show the parent of a compound that is named as a salt.
Assay Metric: pIC50

{"Compound": "COc1cccc(F)c1-c1nccc(Nc2cc(N3CCC[C@H](N)C3)c(-c3cnn(CCN(C)C)c3)cn2)n1 [Example 246, hydrochloride]", "Observed Result": "≥ 8.00"}
{"Compound": "COc1cccc(F)c1-c1nccc(Nc2cc(N3CCC(N(C)C)C3)c(-c3cnn(C4CCOCC4)c3)cn2)n1 (stereo not shown)", "Observed Result": "7.30 to 8.00"}
{"Compound": "COc1cc(F)cc(F)c1-c1nc(Nc2cc(N3CCC[C@H](O)C3)c(-c3cnn(C4CCOCC4)c3)cn2)ccc1N", "Observed Result": "≥ 8.00"}
{"Compound": "COc1cccc(F)c1-c1nccc(Nc2cc(N3CCC[C@H](O)C3)c(-c3cccnc3)cn2)n1", "Observed Result": "7.30 to 8.00"}
{"Compound": "COc1cccc(F)c1-c1nccc(Nc2cc(N3CCC[C@H](N)C3)c(-c3cnc4c(c3)OCCN4C)cn2)n1 [Example 256, hydrochloride]", "Observed Result": "≥ 8.00"}
{"Compound": "COc1cccc(F)c1-c1nccc(Nc2cc(N3CC[C@@H](F)[C@H](O)C3)c(-c3cnn(C4CCOCC4)c3)cn2)n1", "Observed Result": "≥ 8.00"}
{"Compound": "COc1cc(F)cc(F)c1-c1nc(Nc2cc(N3CCC[C@H](O)C3)c(-c3cnn(C4CCOCC4)c3)cn2)ccc1[N+](=O)[O-]", "Observed Result": "≥ 8.00"}

###

IC50 reference
# System Tested: human recombinant HPK1 (Homo sapiens, UniProt Q92918)
# Sequence (Q92918 whole entry): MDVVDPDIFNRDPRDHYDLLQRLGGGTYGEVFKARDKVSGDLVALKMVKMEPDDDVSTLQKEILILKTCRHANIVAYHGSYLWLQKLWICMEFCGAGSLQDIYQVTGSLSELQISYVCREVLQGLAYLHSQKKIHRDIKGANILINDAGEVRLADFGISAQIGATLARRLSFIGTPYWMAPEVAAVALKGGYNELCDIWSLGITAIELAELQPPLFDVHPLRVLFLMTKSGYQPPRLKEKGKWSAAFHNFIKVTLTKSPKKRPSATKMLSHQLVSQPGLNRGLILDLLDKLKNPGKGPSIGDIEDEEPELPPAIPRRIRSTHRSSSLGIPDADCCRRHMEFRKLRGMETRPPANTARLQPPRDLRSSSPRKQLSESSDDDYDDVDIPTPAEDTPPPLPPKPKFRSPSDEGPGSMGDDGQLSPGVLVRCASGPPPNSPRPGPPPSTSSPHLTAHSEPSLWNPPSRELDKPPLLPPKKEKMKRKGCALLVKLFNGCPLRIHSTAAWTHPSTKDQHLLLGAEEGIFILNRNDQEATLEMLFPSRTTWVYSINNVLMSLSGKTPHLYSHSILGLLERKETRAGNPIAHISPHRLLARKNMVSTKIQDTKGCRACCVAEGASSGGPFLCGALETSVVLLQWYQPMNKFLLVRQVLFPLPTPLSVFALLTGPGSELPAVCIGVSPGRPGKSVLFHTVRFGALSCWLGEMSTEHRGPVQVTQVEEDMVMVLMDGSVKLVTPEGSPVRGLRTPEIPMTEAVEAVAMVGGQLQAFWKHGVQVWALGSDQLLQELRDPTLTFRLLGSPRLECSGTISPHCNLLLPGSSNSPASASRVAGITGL
# Assay Details: Inhibitory activity against human recombinant HPK1 (TR-FRET)
# Stated Conditions: ULight-p70S6K peptide, ATP at Km, room temperature, 1 hour, 0.32 to 1000 nM compound
Where a name gives a salt, the structure may show the parent alone.
Assay Metric: IC50

{"Compound": "COc1cccc(F)c1-c1nccc(Nc2cc(N3CC(O)C3)c(C#CC3CCOCC3)cn2)n1 [Example 10]", "System Tested": "human recombinant HPK1 (Homo sapiens, UniProt Q92918)", "Observed Result": "10 to 50 nM"}
{"Compound": "COc1cccc(F)c1-c1nccc(Nc2cc(N3CCC[C@H](O)C3)c(-c3ccc(C4CCOCC4)cc3)cn2)n1 [Example 18]", "System Tested": "human recombinant HPK1 (Homo sapiens, UniProt Q92918)", "Observed Result": "≤ 10 nM"}
{"Compound": "COc1cccc(F)c1-c1nc(Nc2cc(N3CCC[C@H](O)C3)c(C(=O)N[C@@H]3CC[C@H](N)C3)cn2)ccc1[N+](=O)[O-] [Example 200]", "System Tested": "human recombinant HPK1 (Homo sapiens, UniProt Q92918)", "Observed Result": "≤ 10 nM"}
{"Compound": "COc1cccc(F)c1-c1nccc(Nc2cc(N3CCC[C@H](N)C3)c(-c3cnn([C@H]4CCNC4)c3)cn2)n1 [Example 239, hydrochloride]", "System Tested": "human recombinant HPK1 (Homo sapiens, UniProt Q92918)", "Observed Result": "≤ 10 nM"}
{"Compound": "COc1cc(C(=O)N2CC[C@@H](F)C2)cc(F)c1-c1nccc(Nc2cc(N3CCC[C@H](O)C3)c(-c3cnn(C(F)F)c3)cn2)n1 [Example 233]", "System Tested": "human recombinant HPK1 (Homo sapiens, UniProt Q92918)", "Observed Result": "≤ 10 nM"}
{"Compound": "COc1cccc(F)c1-c1nc(Nc2cc(N3CC[C@@H](F)[C@H](N)C3)c(-c3cnn(C(F)F)c3)cn2)ccc1F [Example 341, hydrochloride]", "System Tested": "human recombinant HPK1 (Homo sapiens, UniProt Q92918)", "Observed Result": "≤ 10 nM"}

###

# System Tested: human recombinant HPK1 (Homo sapiens)
# Construct: purchased BPS Bioscience
# Assay Details: Inhibitory activity against human recombinant HPK1 (TR-FRET)
# Assay type: biochemical
# Stated Conditions: ULight-p70S6K peptide, ATP at Km, room temperature, 1 hour, 0.32 to 1000 nM compound
Where a name gives a salt, the structure may show the parent alone.

{"Compound": "COc1cccc(F)c1-c1nc(Nc2cc(N3CCC[C@H](N)C3)c(-c3cnn(C(F)(F)F)c3)cn2)ccc1N [Example 173, hydrochloride]", "IC50": "≤ 10 nM"}
{"Compound": "COc1cccc(F)c1-c1nccc(Nc2cc(N3CCC[C@@H](N)C3)c(-c3cnn(CC(F)(F)F)c3)cn2)n1 [Example 77, hydrochloride]", "IC50": "≤ 10 nM"}
{"Compound": "COc1cccc(F)c1-c1nc(Nc2cc(N3CCC[C@H](O)C3)c(-c3cnn(C(F)F)c3)cn2)ccc1N", "IC50": "≤ 10 nM"}

###

# System Tested: human recombinant HPK1 (Homo sapiens, UniProt Q92918)
# Assay Details: Inhibitory activity against human recombinant HPK1 (TR-FRET)
# Stated Conditions: ULight-p70S6K peptide, ATP at Km, room temperature, 1 hour, 0.32 to 1000 nM compound
Where a name gives a salt, the structure may show the parent alone.
Assay Metric: IC50

{"Molecule": "COc1cccc(F)c1-c1nccc(Nc2cc(N3CCC(CCN(C)C)CC3)c(-c3cnn(CC(F)(F)F)c3)cn2)n1", "Assay Metric": "IC50", "Observed Result": "≤ 10 nM"}
{"Molecule": "COc1cccc(F)c1-c1nccc(Nc2cc(N3CC[C@H](N)[C@@H](F)C3)c(-c3cnn(C(F)F)c3)cn2)n1 [Example 302, hydrochloride]", "Assay Metric": "IC50", "Observed Result": "≤ 10 nM"}
{"Molecule": "COc1cccc(F)c1-c1nccc(Nc2cc(N3CCC[C@H](N)C3)c(-c3cnn(C(F)(F)F)c3)cn2)n1 [Example 107, hydrochloride]", "Assay Metric": "IC50", "Observed Result": "≤ 10 nM"}
{"Molecule": "COc1cccc(F)c1-c1nc(Nc2cc(N3CCC[C@H](N)C3)c(-c3cnn(CC(C)(C)O)c3)cn2)ccc1C#N [Example 319, hydrochloride]", "Assay Metric": "IC50", "Observed Result": "≤ 10 nM"}
{"Molecule": "N[C@H]1CCCN(c2cc(Nc3ccnc(-c4c(F)cccc4CO)n3)ncc2C#Cc2cnn(C(F)F)c2)C1 [Example 243, hydrochloride]", "Assay Metric": "IC50", "Observed Result": "≤ 10 nM"}
{"Molecule": "COc1cc(F)cc(F)c1-c1nccc(Nc2cc(N3CCC[C@H](N)C3)c(C#CC(C)(C)O)cn2)n1", "Assay Metric": "IC50", "Observed Result": "≤ 10 nM"}

###

# System Tested: human recombinant HPK1 (Homo sapiens)
# Assay Details: Inhibitory activity against human recombinant HPK1 (TR-FRET)
# Stated Conditions: ULight-p70S6K peptide, ATP at Km, room temperature, 1 hour, 0.32 to 1000 nM compound
Counter-ions that a name gives are not always drawn.
Assay Metric: IC50

{"Compound": "COc1cccc(F)c1-c1nccc(Nc2cc(N3CCC(CCN(C)C)CC3)c(-c3cnn(C(F)F)c3)cn2)n1 [Example 147]", "Observed Result": "≤ 10 nM"}
{"Compound": "COc1cccc(F)c1-c1nc(Nc2cc(N3CCC[C@H](N)C3)c(-c3cnn(C(F)F)c3)cn2)ccc1C#N [Example 301, hydrochloride]", "Observed Result": "≤ 10 nM"}
{"Compound": "COc1cc(F)cc(F)c1-c1nccc(Nc2cc(N3CC[C@@H](O)[C@H](N)C3)c(-c3cnn(C(F)F)c3)cn2)n1 [Example 213, hydrochloride]", "Observed Result": "≤ 10 nM"}
{"Compound": "COc1cccc(F)c1-c1nccc(Nc2cc(N3CCC[C@H](O)C3)c(C(=O)C3CC3)cn2)n1 [Example 5]", "Observed Result": "10 to 50 nM"}
